target: rat α1β2γ2L type GABAA receptors expressed in Xenopus laevis oocytes (Rattus norvegicus (Rat), UniProt P62813+P63138, INS375LLRMFSFK); experiment: Potentiation of GABA-mediated chloride currents, oocyte electrophysiology; format: cell-based; details: 1.0 μM compound, 2 μM GABA, ± SEM, N>=4
Labelling field: enter 1 if recorded Oocyte electrophysiology 1.0 μM (ratio of currents in presence/absence of compound) is less than 7. Enter 0 if it equals or exceeds that cut-off.

Prompt: API: query returns whether the compound falls strictly under 7 in Oocyte electrophysiology 1.0 μM (ratio of currents in presence/absence of compound). Query: CC(=O)[C@H]1CCC2CC3C(CCC4C[C@H](O)CCC43)C[C@@]21C (stereo partly drawn)
Completion: 1

Prompt: API: query returns whether the compound falls strictly under 7 in Oocyte electrophysiology 1.0 μM (ratio of currents in presence/absence of compound). Query: C[C@]12C[C@H]3CC[C@@H]4C[C@@H](O)CCC4C3CC1CC[C@@]21CO1 (stereo partly drawn)
Completion: 0

Prompt: API: query returns whether the compound falls strictly under 7 in Oocyte electrophysiology 1.0 μM (ratio of currents in presence/absence of compound). Query: C[C@@]12CC[C@H](O)C[C@H]1CC[C@@H]1C[C@@]3(C)C(CC[C@@H]3C#N)CC12 (stereo partly drawn)
Completion: 0

Prompt: API: query returns whether the compound falls strictly under 7 in Oocyte electrophysiology 1.0 μM (ratio of currents in presence/absence of compound). Query: C[C@@]12CC3CCC4C[C@H](O)CCC4C3CC1CC[C@]21CO1 (stereo partly drawn)
Completion: 1

Prompt: API: query returns whether the compound falls strictly under 7 in Oocyte electrophysiology 1.0 μM (ratio of currents in presence/absence of compound). Query: C[C@@]12CC[C@H](O)C[C@H]1CC[C@@H]1C[C@]3(C)C(C#N)=CCC3CC12 (stereo partly drawn)
Completion: 0

Prompt: API: query returns whether the compound falls strictly under 7 in Oocyte electrophysiology 1.0 μM (ratio of currents in presence/absence of compound). Query: C[C@]12CC(=O)CC1CC1C(CCC3C[C@H](O)CCC31)C2 (stereo partly drawn)
Completion: 1

Prompt: API: query returns whether the compound falls strictly under 7 in Oocyte electrophysiology 1.0 μM (ratio of currents in presence/absence of compound). Query: `CC(=O)[C@@H]1CC[C@@H]2C[C@H]3[C@@H](CC[C@H]4C[C@H](O)CC[C@@H]43)C[C@]21C`
Completion: 1

Prompt: API: query returns whether the compound falls strictly under 7 in Oocyte electrophysiology 1.0 μM (ratio of currents in presence/absence of compound). Query: `C[C@]12C[C@H]3CC[C@@H]4C[C@@H](O)CC[C@H]4[C@@H]3C[C@@H]1CC[C@@H]2[N+](=O)[O-]`
Completion: 1

====

target: picrotoxin binding site on GABAA receptors; experiment: [35S]-TBPS displacement (inhibition of [35S]-TBPS binding); details: mean ± SEM, duplicate experiments performed in triplicate
measured_property: log10 of IC50 (log10 of the value in nM)
Log scale reminder: IC50 in nM, then log10 taken.

Prompt: Request the reported log10 of IC50 associated with `C[C@]12C[C@H]3CC[C@@H]4C[C@@H](O)CC[C@H]4[C@@H]3C[C@@H]1CC[C@@H]2[N+](=O)[O-]`
Completion: 1.79

Prompt: Request the reported log10 of IC50 associated with C[C@]12CC(=O)CC1CC1C(CCC3C[C@H](O)CCC31)C2 (some centres unmarked)
Completion: 2.45

Prompt: Request the reported log10 of IC50 associated with CC(=O)[C@H]1CCC2CC3C(CCC4C[C@H](O)CCC43)C[C@@]21C (some centres unmarked)
Completion: 1.81

Prompt: Request the reported log10 of IC50 associated with `C[C@@]12C[C@@H]3CC[C@@H]4C[C@H](O)CC[C@@H]4[C@H]3C[C@H]1CCC2=O`
Completion: 3.77

Prompt: Request the reported log10 of IC50 associated with C[C@@]12CC[C@H](O)C[C@@H]1CC[C@@H]1C[C@]3(C)C(=O)CCC3C[C@H]12 (some centres unmarked)
Completion: 2.87

Prompt: Request the reported log10 of IC50 associated with `C[C@]12C[C@H]3CC[C@@H]4C[C@@H](O)CC[C@H]4[C@@H]3C[C@@H]1CC/C2=C/C#N`
Completion: 1.79

Prompt: Request the reported log10 of IC50 associated with C[C@]12C[C@H]3CCC4C[C@@H](O)CC[C@H]4[C@@H]3C[C@@H]1CCC2=O (some centres unmarked)
Completion: 3.24

Prompt: Request the reported log10 of IC50 associated with `C[C@]12C[C@H]3CC[C@@H]4C[C@@H](O)CC[C@H]4[C@@H]3C[C@@H]1CC[C@@H]2C#N`
Completion: 1.72

====

test system: Tadpole; experiment: Tadpole loss of righting (LRR) and loss of swimming (LSR) reflexes; type: in vivo; details: loss of swimming reflex, ± SEM; read-out: Tadpole LSR EC50
measured_property: EC50 (nM)
Reply numerically in nM, unit not repeated.

Prompt: Request the reported EC50 associated with `CC(=O)[C@@H]1CC[C@@H]2C[C@H]3[C@@H](CC[C@H]4C[C@H](O)CC[C@@H]43)C[C@]21C`
Completion: 10000

Prompt: Request the reported EC50 associated with `C[C@]12C[C@H]3CC[C@@H]4C[C@@H](O)CC[C@H]4[C@@H]3C[C@@H]1CC[C@@H]2C#N`
Completion: 870

Prompt: Request the reported EC50 associated with `C[C@]12C[C@H]3CC[C@@H]4C[C@@H](O)CC[C@H]4[C@@H]3C[C@@H]1CC[C@@H]2[N+](=O)[O-]`
Completion: 550

====

Could you please report measured pEC50 for the items listed next?
system: Tadpole; assay: Tadpole loss of righting (LRR) and loss of swimming (LSR) reflexes; format: in vivo; details: loss of swimming reflex, ± SEM; read-out: Tadpole LSR EC50
FYI, pEC50 means -log10 of a concentration in mol per litre.

Prompt: Request the reported pEC50 associated with C[C@]12CC(=O)CC1CC1C(CCC3C[C@H](O)CCC31)C2 (some centres unmarked)
Completion: 5.13

Prompt: Request the reported pEC50 associated with C[C@@]12CC[C@H](O)C[C@H]1CC[C@@H]1C[C@]3(C)C(C#N)=CCC3CC12 (some centres unmarked)
Completion: 6.26

Prompt: Request the reported pEC50 associated with `C[C@@]12CC[C@@H](O)C[C@@H]1CC[C@H]1C[C@@]3(C)[C@H](CC[C@@]34CO4)C[C@@H]12`
Completion: 6.26

Prompt: Request the reported pEC50 associated with C[C@@]12CC[C@H](O)C[C@H]1CC[C@@H]1C[C@@]3(C)C(CC[C@@H]3C#N)CC12 (some centres unmarked)
Completion: 6.48

Prompt: Request the reported pEC50 associated with C[C@@]12CC3CCC4C[C@H](O)CCC4C3CC1CC[C@]21CO1 (some centres unmarked)
Completion: 5.26

====

target: rat α1β2γ2L type GABAA receptors expressed in Xenopus laevis oocytes (Rattus norvegicus (Rat), UniProt P62813+P63138, INS375LLRMFSFK); test: Potentiation of GABA-mediated chloride currents, oocyte electrophysiology; type: cell-based; settings: 10 μM compound in the absence of GABA, ± SEM
Could you please report measured Oocyte electrophysiology (gating) 10 μM (ratio of compound only current/2 μM GABA current) for the items listed next?
Keep it simple and answer with nothing but the number.

Prompt: Request the reported Oocyte electrophysiology (gating) 10 μM (ratio of compound only current/2 μM GABA current) associated with `C[C@@]12CC[C@@H](O)C[C@@H]1CC[C@H]1C[C@@]3(C)[C@H](CC[C@@]34CO4)C[C@@H]12`
Completion: 0.10

Prompt: Request the reported Oocyte electrophysiology (gating) 10 μM (ratio of compound only current/2 μM GABA current) associated with C[C@]12C[C@H]3CCC4C[C@@H](O)CC[C@H]4[C@@H]3C[C@@H]1CCC2=O (stereo partly drawn)
Completion: −0.06

Prompt: Request the reported Oocyte electrophysiology (gating) 10 μM (ratio of compound only current/2 μM GABA current) associated with `C[C@]12C[C@H]3CC[C@@H]4C[C@@H](O)CC[C@H]4[C@@H]3C[C@@H]1CC[C@@H]2C#N`
Completion: 0.51

Prompt: Request the reported Oocyte electrophysiology (gating) 10 μM (ratio of compound only current/2 μM GABA current) associated with `C[C@]12C[C@H]3CC[C@@H]4C[C@@H](O)CC[C@H]4[C@@H]3C[C@@H]1CC/C2=C\C#N`
Completion: 0.12

Prompt: Request the reported Oocyte electrophysiology (gating) 10 μM (ratio of compound only current/2 μM GABA current) associated with C[C@@]12CC3CCC4C[C@H](O)CCC4C3CC1CC[C@H]2C#N (stereo partly drawn)
Completion: 0.02

Prompt: Request the reported Oocyte electrophysiology (gating) 10 μM (ratio of compound only current/2 μM GABA current) associated with C[C@@]12CC3CCC4C[C@H](O)CCC4C3CC1CC[C@]21CO1 (stereo partly drawn)
Completion: 0.05

Prompt: Request the reported Oocyte electrophysiology (gating) 10 μM (ratio of compound only current/2 μM GABA current) associated with C[C@@]12CC[C@H](O)C[C@H]1CC[C@@H]1C[C@@]3(C)C(CC[C@@H]3C#N)CC12 (stereo partly drawn)
Completion: 0.04

Prompt: Request the reported Oocyte electrophysiology (gating) 10 μM (ratio of compound only current/2 μM GABA current) associated with C[C@@]12CC3CC[C@H]4C[C@H](O)CCC4C3CC1CCC2=O (stereo partly drawn)
Completion: −0.01

Prompt: Request the reported Oocyte electrophysiology (gating) 10 μM (ratio of compound only current/2 μM GABA current) associated with C[C@]12C[C@H]3CC[C@@H]4C[C@@H](O)CCC4C3CC1CC[C@@]21CO1 (stereo partly drawn)
Completion: 0.54
